# study target: CCR4 (Homo sapiens (Human), UniProt P51679)
# Sequence (P51679 whole entry): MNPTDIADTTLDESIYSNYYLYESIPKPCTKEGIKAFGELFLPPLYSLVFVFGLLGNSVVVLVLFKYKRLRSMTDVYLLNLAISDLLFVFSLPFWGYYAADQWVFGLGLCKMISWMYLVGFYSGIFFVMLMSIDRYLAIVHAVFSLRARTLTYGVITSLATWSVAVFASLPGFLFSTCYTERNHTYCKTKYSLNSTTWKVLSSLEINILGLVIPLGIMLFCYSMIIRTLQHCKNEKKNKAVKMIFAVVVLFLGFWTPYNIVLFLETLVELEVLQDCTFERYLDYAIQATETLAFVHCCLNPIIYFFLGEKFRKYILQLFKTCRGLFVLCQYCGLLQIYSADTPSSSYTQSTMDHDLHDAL
# protocol summary: Receptor profiling: calcium flux (FLIPR TETRA) on Chem-1 cells expressing chemokine receptor
# assay conditions: antagonist activity, reference agonist at AC80
# Protocol: Measurement of Calcium Flux on Cells: The experiments were carried out on the FLIPR TETRA® platform from Molecular Devices. After the basal level had been read, the compounds were added to the cells expressing the chemokine receptor of interest and the agonist activity was read at 10 seconds. […]
parameter: pIC50
Answers are plain numbers, as −log10 of the molar value.

Reported pIC50, compound Cc1ccc([C@H](Nc2c(Nc3ccc(Cl)c(S(=O)(=O)N4CCN(C)CC4)c3O)c(=O)c2=O)C2(C)COC2)o1 [Example 53] : ____ 6.35

====

# study target: CXCR2 receptor (Homo sapiens (Human))
# Sequence (P25025 whole entry): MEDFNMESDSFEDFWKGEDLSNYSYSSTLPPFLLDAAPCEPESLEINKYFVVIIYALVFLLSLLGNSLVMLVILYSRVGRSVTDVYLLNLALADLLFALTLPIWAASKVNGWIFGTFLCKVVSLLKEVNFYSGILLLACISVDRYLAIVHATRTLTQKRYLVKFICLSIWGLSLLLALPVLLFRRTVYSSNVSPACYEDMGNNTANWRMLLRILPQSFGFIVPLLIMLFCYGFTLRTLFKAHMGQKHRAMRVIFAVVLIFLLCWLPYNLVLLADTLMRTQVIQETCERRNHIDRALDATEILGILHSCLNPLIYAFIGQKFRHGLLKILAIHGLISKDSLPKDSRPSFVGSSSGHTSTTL
# protocol summary: β-arrestin 2 recruitment test, PathHunter HEK293-CXCR2 cells stimulated with CXCL8
# assay conditions: CXCL8 stimulation
parameter: IC50

Below: 2 compounds and their reported IC50.
In [3]: df
Out[3]:
                                   compound  value_observed
0  Cc1ccc([C@H](Nc2c(Nc3ccc(Cl)c(C(=O)N(C)C)c3O)c(=O)c2=O)C2(C)COC2)o1          373 nM
1  Cc1ccc(C(Nc2c(Nc3cccn(C)c3=O)c(=O)c2=O)C2(C)COC2)o1 (stereo not shown)          394 nM

Working through the 2 compounds below one at a time, give IC50 for each.
1. Cc1ccc(C(Nc2c(Nc3cccc(C(=O)N4CCCC4)c3O)c(=O)c2=O)C2(C)COC2)o1 (stereo not shown)
2. COC(=O)[C@@H]1CCCN1C(=O)c1cccc(Nc2c(N[C@@H](c3ccc(C)o3)C3(C)COC3)c(=O)c2=O)c1O

262 nM
60 nM

====

# study target: CXCR2 receptor (Homo sapiens (Human))
# protocol summary: β-arrestin 2 recruitment test, PathHunter HEK293-CXCR2 cells stimulated with CXCL8
# assay conditions: CXCL8 stimulation
pIC50: −log10 of the molar value.
We use 7 as the dividing line for pIC50: on or above the line is Y, below is N.

>>> print(df.to_string())
                                   molecule  answer_label
0  CN(C)C(=O)c1cccc(Nc2c(NC(c3ccco3)C3(C)COC3)c(=O)c2=O)c1O (centres unmarked)             N
1  COc1ccc(C(Nc2c(Nc3cccc(C(=O)N(C)C)c3O)c(=O)c2=O)C2(C)COC2)cc1 (centres unmarked)             N
2  Cc1ccc([C@H](Nc2c(Nc3cccc(C(=O)N(C)CC(F)(F)F)c3O)c(=O)c2=O)C2(C)COC2)o1             Y
3  Cc1ccc(C(Nc2c(Nc3cccc(C(=O)N4CCC(O)C4)c3)c(=O)c2=O)C2(C)COC2)o1 (centres unmarked)             N

// inclusive: pIC50 at least 7? input: Cc1ccoc1C(Nc1c(Nc2cccc(C(=O)N(C)C)c2O)c(=O)c1=O)C1(C)COC1 (centres unmarked) [Example 37b] N

// query: Cc1ccc(C(Nc2c(Nc3cccnc3O)c(=O)c2=O)C2(C)COC2)o1 (centres unmarked) N

====

# study target: CXCR1 receptor (Homo sapiens (Human))
# Sequence (P25024 whole entry): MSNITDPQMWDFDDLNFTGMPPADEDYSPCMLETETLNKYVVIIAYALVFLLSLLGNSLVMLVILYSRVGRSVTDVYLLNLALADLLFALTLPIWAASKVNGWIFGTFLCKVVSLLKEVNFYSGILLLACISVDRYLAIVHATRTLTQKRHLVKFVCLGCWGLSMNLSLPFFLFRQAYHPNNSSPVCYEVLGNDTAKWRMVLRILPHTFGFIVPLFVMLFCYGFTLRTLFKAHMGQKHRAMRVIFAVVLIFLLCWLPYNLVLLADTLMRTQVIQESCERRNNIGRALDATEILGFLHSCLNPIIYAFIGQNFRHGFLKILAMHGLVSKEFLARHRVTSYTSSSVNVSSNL
# protocol summary: β-arrestin 2 recruitment test, U2OS hCXCR1 β-arrestin cells stimulated with CXCL8
# assay conditions: CXCL8 stimulation
parameter: pIC50
Answers are plain numbers, as −log10 of the molar value.

Below: 5 compounds and their reported pIC50.
                                   compound                           study_target  parameter  value_observed
0  COC(=O)[C@H]1CCCN1C(=O)c1cccc(Nc2c(N[C@@H](c3ccc(C)o3)C3(C)COC3)c(=O)c2=O)c1O  CXCR1 receptor (Homo sapiens (Human))      pIC50            6.22
1  Cc1ccc(C(Nc2c(Nc3cccc(C(=O)N4CCOCC4)c3O)c(=O)c2=O)C2(C)COC2)o1 (centres unmarked)  CXCR1 receptor (Homo sapiens (Human))      pIC50            5.50
2  Cc1ccoc1C(Nc1c(Nc2cccc(C(=O)N(C)C)c2O)c(=O)c1=O)C1(C)COC1 (centres unmarked) [Example 37b]  CXCR1 receptor (Homo sapiens (Human))      pIC50            5.11
3  CC(C)c1coc(C(Nc2c(Nc3cccc(C(=O)N(C)C)c3O)c(=O)c2=O)C2(C)COC2)c1 (centres unmarked)  CXCR1 receptor (Homo sapiens (Human))      pIC50            6.49
4  CN(C)C(=O)c1cccc(Nc2c(NC(c3ccco3)C3(C)COC3)c(=O)c2=O)c1O (centres unmarked)  CXCR1 receptor (Homo sapiens (Human))      pIC50            5.77

Working through the 3 compounds below one at a time, give pIC50 for each.
1. Cc1coc(C(Nc2c(Nc3cccc(C(=O)N(C)C)c3O)c(=O)c2=O)C2(C)COC2)c1 (centres unmarked) [Example 37a]
2. Cc1ccc(C(Nc2c(Nc3cccc(C(=O)N(C)C)c3O)c(=O)c2=O)C2(CF)COC2)o1 (centres unmarked)
3. CN(C)C(=O)c1cccc(Nc2c(NC(c3cccs3)C3(C)COC3)c(=O)c2=O)c1O (centres unmarked)

[6.08, 5.80, 5.79]
